Hello, the source for this data is PubChem BioAssay (NCI), in case you need it.

Tested on: SK-MEL-28 melanoma
protocol-details: NCI tumour cell line growth inhibition, 48 h; in the data active = GI50 below about 0.43 µM; inactive = the rest
Bench note: report the call from active, inactive

Study these solved cases before continuing.
CCC(CC)c1nc(Nc2ccc(C(=O)OC)cc2)c2ccccc2n1 : inactive
COC1C(CO)OC(n2c3ccccc3c3c4c(c5c6ccccc6[nH]c5c32)C(=O)NC4=O)C(O)C1O (stereo not drawn) : active
CCOC(=O)C1=C(C)N=c2s/c(=C\c3ccccc3O)c(=O)n2C1c1ccc(OC)c2ccccc12 (stereo not drawn) : inactive
C=C(C)C(=O)O[C@H]1CC2=C[C@@H](C[C@@]3(C)O[C@@H]3[C@H]3OC(=O)C(=C)[C@@H]31)OC2=O : inactive
C=C(C)[C@@H]1CC[C@]2(COCCC#N)CC[C@]3(C)[C@H](CC[C@@H]4[C@@](C)(CCCNCCC#N)[C@H](C(=C)C)CC[C@]43C)[C@@H]12 : inactive

Now consider a different compound.
[in] Called result for COc1ccc(N=Cc2c(O)ccc3c2oc2cc(Cl)c(O)c(Cl)c23)cc1
[out] inactive
